Hey, just so you know, these numbers are from PubChem BioAssay (NCI).

# Tested on: 786-0 renal
# Run description: NCI tumour cell line growth inhibition, 48 h
Measured property: GI50

| Molecule | Obs value |
| --- | --- |
| Cc1c(Br)c(Br)c2c3c1nc(N1CCNCC1)n3CCC2 | 2630 nM |
| Oc1c(Cl)cc(Cl)c(Cl)c1Cc1c(O)c(Cl)cc(Cl)c1Cl | 1960 nM |
| CN1C(=O)[C@@H](CC2CCCC2)N(C2CCCC2)c2nc(Nc3cc(Cl)c(O)c(Cl)c3)ncc21 | 15200 nM |
| CC(=O)NC(CCc1ccc(Cl)c(Cl)c1)c1cccc(O)c(=O)c1 (stereo not given) | 591 nM |
| N=C1C(c2nc3ccccc3c(=O)[nH]2)=C(O)CN1c1cccc(Cl)c1 | 4050 nM |

----------
Quick reference for TGI among some compounds
# System: K-562 leukemia
# Run description: NCI tumour cell line growth inhibition, 48 h

| Compound | TGI |
| --- | --- |
| CC(C)=NC(C(=O)O)C(C)(C)S (stereo not drawn) | > 100 µM |
| COc1ccc(/C=N/NS(=O)(=O)c2ccc(/C=C3\NC(=O)NC3=O)cc2)cc1 | > 100 µM |
| CCN1CCCCCCCCCC(=N/O)/C(=N\O)C1 | > 100 µM |

----------
// reported TGI for each item listed
# System: M19-MEL melanoma
# Run description: NCI tumour cell line growth inhibition, 48 h

| Compound | TGI |
| --- | --- |
| O=C1CC[C@@H](S(=O)(=O)c2ccccc2)[C@H](/C=C/c2ccccc2)O1 | > 100 µM |
| Cc1cc(NS(=O)(=O)c2ccc(NC(=O)c3cccc4c(Nc5ccc(S(=O)(=O)Nc6cc(C)on6)cc5)c5ccc(Cl)cc5nc34)cc2)no1 | > 100 µM |
| O=C1NC(=S)NC(=O)C1=Cc1ccc([N+](=O)[O-])o1 | 36.8 µM |
| CC(C)(C)c1cc(Cc2ccc(S(C)(=O)=O)cc2)c(O)c(C(C)(C)C)c1 | 32.7 µM |
| O=c1[nH]c(-c2ccccc2)nc2cc([N+](=O)[O-])c(/C(Cl)=C/c3ccccc3)cc12 | > 100 µM |
| O=C(N[C@H](CO)[C@H](O)c1ccc([N+](=O)[O-])cc1)C(Cl)Cl | > 100 µM |
| NC(N)=NCCCC(Nc1c2ccccc2nc2ccccc12)C(=O)O (stereo not drawn) | > 100 µM |
| [pH]1p2[pH]p3p1p3[pH]2.c1cc[c]([Ge]([c]2ccccc2)[c]2ccccc2)cc1.c1cc[c]([Ge]([c]2ccccc2)[c]2ccccc2)cc1.c1cc[c]([Ge]([c]2ccccc2)[c]2ccccc2)cc1 | 28.6 µM |

----------
# Test system: MCF7 breast
# Run description: NCI tumour cell line growth inhibition, 48 h
Measured property: TGI (µM)

| Compound | Measured property | Readout unit | Censor symbol | Obs value |
| --- | --- | --- | --- | --- |
| COc1ccc(/C(=N/Nc2nc3ccccc3n2Cc2ccccc2)C(=O)O)cc1 | TGI | µM | = | 51.2 |
| CC=C/C=C/[C@@H]1O[C@](O)([C@H](CC)C(=O)NC/C=C/C=C(\C)[C@@H](OC)[C@@H](C)[C@@H]2O[C@H](/C=C/C=C/C=C(\C)C(=O)c3c(O)cc[nH]c3=O)[C@H](O)[C@@H]2O)[C@H](O)[C@H](O)C1(C)C | TGI | µM | > | 100 |
| CCN(CC)CCN1C(=O)c2c(c3c4cccc(Cl)c4n(C4OC(CO)C(OC)C(O)C4O)c3c3[nH]c4c(Cl)cccc4c23)C1=O (stereo unspecified) | TGI | µM | = | 0.199 |
| Cc1ncnc2c1ccn2[C@@H]1C[C@H](Oc2cc(C(F)F)c(F)c3c2CNCC3)[C@@H](O)[C@H]1O | TGI | µM | > | 100 |
| Cc1ccc(NC(=O)CC(=O)N2N=C(N(c3ccccc3)c3ccccc3)CC2c2ccccc2)cc1 (stereo unspecified) | TGI | µM | > | 100 |
| CCN1C[C@@H](C)n2c(c(O)c3c(=O)n(Cc4ccc(F)c(Cl)c4)nc(C(=O)NC)c32)C1=O | TGI | µM | = | 65.7 |
